subject-of-test: human P2X2/3 receptor (Homo sapiens, UniProt P56373+Q9UBL9)
Construct: expressed in transfected cells; host or cells: CHO-K1
Sequence (Q9UBL9 whole entry): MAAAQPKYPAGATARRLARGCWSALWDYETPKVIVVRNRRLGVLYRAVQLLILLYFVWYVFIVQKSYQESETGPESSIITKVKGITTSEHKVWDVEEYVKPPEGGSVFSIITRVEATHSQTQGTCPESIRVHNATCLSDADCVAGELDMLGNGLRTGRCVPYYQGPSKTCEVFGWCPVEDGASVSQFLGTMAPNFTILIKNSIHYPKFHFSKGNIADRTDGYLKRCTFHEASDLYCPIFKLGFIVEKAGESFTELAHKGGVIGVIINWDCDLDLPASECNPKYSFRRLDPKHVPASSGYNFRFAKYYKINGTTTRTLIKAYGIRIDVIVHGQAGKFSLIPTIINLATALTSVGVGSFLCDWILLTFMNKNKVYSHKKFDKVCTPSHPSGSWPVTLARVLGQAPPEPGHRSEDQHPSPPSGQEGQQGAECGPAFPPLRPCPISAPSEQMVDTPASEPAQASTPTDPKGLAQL
Sequence (P56373 whole entry): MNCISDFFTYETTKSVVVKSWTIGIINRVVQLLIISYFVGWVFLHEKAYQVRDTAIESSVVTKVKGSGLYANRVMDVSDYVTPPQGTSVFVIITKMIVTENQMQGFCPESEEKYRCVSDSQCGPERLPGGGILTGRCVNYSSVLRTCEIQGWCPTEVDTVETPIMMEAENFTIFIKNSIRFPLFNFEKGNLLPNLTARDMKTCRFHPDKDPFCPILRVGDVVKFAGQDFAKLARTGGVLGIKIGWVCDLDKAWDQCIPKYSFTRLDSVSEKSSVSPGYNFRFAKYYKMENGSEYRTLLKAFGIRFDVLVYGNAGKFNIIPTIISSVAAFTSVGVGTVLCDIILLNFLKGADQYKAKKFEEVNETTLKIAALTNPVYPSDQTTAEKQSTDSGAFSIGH
protocol: P2X2/3 FLIPR (Fluorometric Imaging Plate Reader) assay
Assay type: cell-based
measurement-setup: CHO-K1 cells transfected with human P2X2/3; agonist α,β-meATP 5 μM; Fluo-3 calcium fluorescence
Lab note: compare pKi P2X2/3 against 6. Equal or greater, write Y. Smaller, write N.

Previously resolved entries follow.
Cc1ccc(-c2cc(C(=O)NCc3ccc(C)nn3)cc3c2ccn3C(C)C)nc1 [Compound 25] :: N
Cc1ccc(-n2ncc3c(-c4ccc(C)cn4)cc(C(=O)NCc4cnc(C)cn4)cc32)cc1 [Compound 16] :: Y
Cc1ccc(-c2cc(C(=O)NCc3cnc(C)cn3)cc3c2cnn3-c2ccccc2C)nc1 [Compound 18] :: Y
Cc1ccc(-c2cc(C(=O)N[C@@H](C)CO)cc3c2cnn3-c2ccccc2C(C)C)nc1 [Compound 20] :: Y
Cc1ccc(-c2cc(C(=O)NCc3cnc(C)cn3)cc3c2cnn3Cc2ccccc2)nc1 [Compound 9] :: Y

Request: Is pKi P2X2/3 at least 6? Consider Cc1ccc(-c2cc(C(=O)N[C@@H](C)CO)cc3c2cnn3Cc2ccccc2)nc1 [Compound 10]
Result: N

Request: Is pKi P2X2/3 at least 6? Consider Cc1ccc(-c2cc(C(=O)N[C@@H](C)CO)cc3c2cnn3C(C)C)nc1 [Compound 5]
Result: N

Request: Is pKi P2X2/3 at least 6? Consider CCCCn1ncc2c(-c3ccc(C)cn3)cc(C(=O)NCc3cnc(C)cn3)cc21 [Compound 2]
Result: Y

Request: Is pKi P2X2/3 at least 6? Consider Cc1ccc(-n2ncc3c(-c4ccc(C)cn4)cc(C(=O)N[C@@H](C)CO)cc32)cc1 [Compound 17]
Result: N

Request: Is pKi P2X2/3 at least 6? Consider Cc1ccc(-c2cc(C(=O)NCc3cnc(C)cn3)cc3c2cnn3CC(C)C)nc1 [Compound 1]
Result: N

Request: Is pKi P2X2/3 at least 6? Consider Cc1ccc(-c2cc(C(=O)NCc3cnc(C)cn3)cc3c2cnn3-c2ccccc2)nc1 [Compound 14]
Result: Y

----------
subject-of-test: rat P2X3 receptor (Rattus norvegicus)
Construct: expressed in transfected cells; host or cells: CHO-K1
Sequence (P49654 whole entry): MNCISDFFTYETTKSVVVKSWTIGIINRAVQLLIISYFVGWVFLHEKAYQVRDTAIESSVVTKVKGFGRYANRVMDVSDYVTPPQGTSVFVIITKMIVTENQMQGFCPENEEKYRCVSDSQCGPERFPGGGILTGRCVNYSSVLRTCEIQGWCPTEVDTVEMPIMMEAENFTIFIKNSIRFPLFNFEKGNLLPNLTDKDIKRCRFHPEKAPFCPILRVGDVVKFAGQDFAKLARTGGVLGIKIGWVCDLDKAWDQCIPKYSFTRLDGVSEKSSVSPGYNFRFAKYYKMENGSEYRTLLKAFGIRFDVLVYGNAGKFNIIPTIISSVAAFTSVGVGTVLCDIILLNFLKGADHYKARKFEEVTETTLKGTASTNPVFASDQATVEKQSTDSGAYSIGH
protocol: P2X3 FLIPR (Fluorometric Imaging Plate Reader) assay
Format: cell-based
measurement-setup: CHO-K1 cells transfected with cloned rat P2X3; agonist α,β-meATP 1 μM; Fluo-3 calcium fluorescence
Method: P2X3/P2X2/3 FLIPR (Fluorometric Imaging Plate Reader) Assay CHO-K1 cells were transfected with cloned rat P2X3 or human P2X2/3 receptor subunits and passaged in flasks. […] Test compounds (dissolved in DMSO at 10 mM and serially diluted with FB) or vehicle were added to each well (25 μl of a 4× solution) and allowed to equilibrate for 20 minutes at room temperature. […] Fluorescence was measured for an additional 2 minutes at 1 second intervals after agonist addition. […]
value-type: pKi P2X3
Please reply with the value in numeric form only.

Use the examples below as a reference point.
Cc1ccc(-c2cc(C(=O)NCc3cnc(C)cn3)cc3c2cnn3-c2ccccc2)nc1 :: 7.44
Cc1ccc(-n2ncc3c(-c4ccc(C)cn4)cc(C(=O)N[C@@H](C)CO)cc32)cc1 :: 7.38
Cc1ccc(-c2cc(C(=O)NCc3cnc(C)cn3)cc3c2ncn3CC(C)C)nc1 :: 6.46
COCCn1ncc2c(-c3ccc(C)cn3)cc(C(=O)NCc3cnc(C)cn3)cc21 :: 5.51
Cc1ccc(-c2cc(C(=O)NCc3cnc(C)cn3)cc3c2cnn3Cc2ccccc2)nc1 :: 7.25

Request: State, for rat P2X3 receptor (Rattus norvegicus), measured pKi P2X3 of the compound listed here: Cc1ccc(-c2cc(C(=O)NCc3cnc(C)cn3)cc3c2cnn3C(C)C)nc1
Result: 6.58

Request: State, for rat P2X3 receptor (Rattus norvegicus), measured pKi P2X3 of the compound listed here: Cc1ccc(-c2cc(C(=O)NCc3cnc(C)cn3)cc3c2cnn3-c2ccccc2C)nc1
Result: 8.01

Request: State, for rat P2X3 receptor (Rattus norvegicus), measured pKi P2X3 of the compound listed here: Cc1ccc(-c2cc(C(=O)NCc3cnc(C)cn3)cc3c2ccn3C(C)C)nc1
Result: 6.26

Request: State, for rat P2X3 receptor (Rattus norvegicus), measured pKi P2X3 of the compound listed here: Cc1ccc(-c2cc(C(=O)N[C@@H](C)CO)cc3c2cnn3-c2ccccc2C)nc1
Result: 7.98

Request: State, for rat P2X3 receptor (Rattus norvegicus), measured pKi P2X3 of the compound listed here: Cc1ccc(-c2cc(C(=O)NCc3cnc(C)cn3)cc3c2ccn3CC(C)C)nc1
Result: 7.17

Request: State, for rat P2X3 receptor (Rattus norvegicus), measured pKi P2X3 of the compound listed here: Cc1ccc(-c2cc(C(=O)N[C@@H](C)CO)cc3c2cnn3-c2ccccc2)nc1
Result: 6.19

Request: State, for rat P2X3 receptor (Rattus norvegicus), measured pKi P2X3 of the compound listed here: Cc1ccc(-c2cc(C(=O)NCc3ccc(C)nn3)cc3c2cnn3CC(F)(F)F)nc1
Result: 7.19
